conditions: in methanol, 303.15 K
outcome_measure: solubility (mole fraction)
Number only, please.

Problem: Requested read-out: solubility (mole fraction). Entry: O=C(O)/C=C/c1ccc(Cl)cc1
Result: 0.00172

----------
settings: in water, 288.15 K
outcome_measure: solubility (mole fraction)
Number only, please.

Problem: Requested read-out: solubility (mole fraction). Entry: O=C(O)/C=C/c1ccc(Cl)cc1
Result: 6.88e-06

----------
conditions: in n-propanol, 298.15 K
outcome_measure: solubility (mole fraction)

Problem: Requested read-out: solubility (mole fraction). Entry: O=C(O)/C=C/c1ccc(Cl)cc1
Result: 0.002

----------
settings: in n-butanol, 288.15 K
outcome_measure: solubility (mole fraction)
Number only, please.

Problem: Requested read-out: solubility (mole fraction). Entry: O=C(O)/C=C/c1ccc(Cl)cc1
Result: 0.00154

----------
settings: in isobutanol, 323.15 K
outcome_measure: solubility (mole fraction)
Number only, please.

Problem: Requested read-out: solubility (mole fraction). Entry: O=C(O)/C=C/c1ccc(Cl)cc1
Result: 0.00325

----------
conditions: in 1,4-dioxane, 293.15 K
outcome_measure: solubility (mole fraction)
Number only, please.

Problem: Requested read-out: solubility (mole fraction). Entry: O=C(O)/C=C/c1ccc(Cl)cc1
Result: 0.0094

----------
details: in methyl acetate, 318.15 K
outcome_measure: solubility (mole fraction)
Number only, please.

Problem: Requested read-out: solubility (mole fraction). Entry: O=C(O)/C=C/c1ccc(Cl)cc1
Result: 0.00355

----------
conditions: in acetone, 313.15 K
outcome_measure: solubility (mole fraction)
Number only, please.

Problem: Requested read-out: solubility (mole fraction). Entry: O=C(O)/C=C/c1ccc(Cl)cc1
Result: 0.00509

----------
details: in methanol, 288.15 K
outcome_measure: solubility (mole fraction)

Problem: Requested read-out: solubility (mole fraction). Entry: O=C(O)/C=C/c1ccc(Cl)cc1
Result: 0.00123

----------
conditions: in methyl acetate, 323.15 K
outcome_measure: solubility (mole fraction)
Number only, please.

Problem: Requested read-out: solubility (mole fraction). Entry: O=C(O)/C=C/c1ccc(Cl)cc1
Result: 0.0038

----------
settings: in methyl acetate, 313.15 K
outcome_measure: solubility (mole fraction)
Number only, please.

Problem: Requested read-out: solubility (mole fraction). Entry: O=C(O)/C=C/c1ccc(Cl)cc1
Result: 0.0033

----------
conditions: in n-butanol, 293.15 K
outcome_measure: solubility (mole fraction)
Number only, please.

Problem: Requested read-out: solubility (mole fraction). Entry: O=C(O)/C=C/c1ccc(Cl)cc1
Result: 0.00184

----------
conditions: in acetone, 298.15 K
outcome_measure: solubility (mole fraction)
Number only, please.

Problem: Requested read-out: solubility (mole fraction). Entry: O=C(O)/C=C/c1ccc(Cl)cc1
Result: 0.00334

----------
details: in water, 308.15 K
outcome_measure: solubility (mole fraction)

Problem: Requested read-out: solubility (mole fraction). Entry: O=C(O)/C=C/c1ccc(Cl)cc1
Result: 1.26e-05

----------
conditions: in water, 293.15 K
outcome_measure: solubility (mole fraction)
Number only, please.

Problem: Requested read-out: solubility (mole fraction). Entry: O=C(O)/C=C/c1ccc(Cl)cc1
Result: 8.16e-06

----------
conditions: in 1,4-dioxane, 308.15 K
outcome_measure: solubility (mole fraction)

Problem: Requested read-out: solubility (mole fraction). Entry: O=C(O)/C=C/c1ccc(Cl)cc1
Result: 0.0132

----------
conditions: in n-propanol, 308.15 K
outcome_measure: solubility (mole fraction)
Number only, please.

Problem: Requested read-out: solubility (mole fraction). Entry: O=C(O)/C=C/c1ccc(Cl)cc1
Result: 0.00266

----------
conditions: in methanol, 298.15 K
outcome_measure: solubility (mole fraction)

Problem: Requested read-out: solubility (mole fraction). Entry: O=C(O)/C=C/c1ccc(Cl)cc1
Result: 0.00155

----------
settings: in methanol, 318.15 K
outcome_measure: solubility (mole fraction)
Number only, please.

Problem: Requested read-out: solubility (mole fraction). Entry: O=C(O)/C=C/c1ccc(Cl)cc1
Result: 0.00233

----------
conditions: in n-butanol, 298.15 K
outcome_measure: solubility (mole fraction)
Number only, please.

Problem: Requested read-out: solubility (mole fraction). Entry: O=C(O)/C=C/c1ccc(Cl)cc1
Result: 0.00219

----------
settings: in ethanol, 323.15 K
outcome_measure: solubility (mole fraction)
Number only, please.

Problem: Requested read-out: solubility (mole fraction). Entry: O=C(O)/C=C/c1ccc(Cl)cc1
Result: 0.004

----------
conditions: in acetonitrile, 298.15 K
outcome_measure: solubility (mole fraction)
Number only, please.

Problem: Requested read-out: solubility (mole fraction). Entry: O=C(O)/C=C/c1ccc(Cl)cc1
Result: 0.000425

----------
settings: in acetone, 318.15 K
outcome_measure: solubility (mole fraction)
Number only, please.

Problem: Requested read-out: solubility (mole fraction). Entry: O=C(O)/C=C/c1ccc(Cl)cc1
Result: 0.00556

----------
conditions: in ethyl acetate, 298.15 K
outcome_measure: solubility (mole fraction)
Number only, please.

Problem: Requested read-out: solubility (mole fraction). Entry: O=C(O)/C=C/c1ccc(Cl)cc1
Result: 0.00214

----------
settings: in acetonitrile, 288.15 K
outcome_measure: solubility (mole fraction)
Number only, please.

Problem: Requested read-out: solubility (mole fraction). Entry: O=C(O)/C=C/c1ccc(Cl)cc1
Result: 0.000351

----------
conditions: in acetonitrile, 308.15 K
outcome_measure: solubility (mole fraction)

Problem: Requested read-out: solubility (mole fraction). Entry: O=C(O)/C=C/c1ccc(Cl)cc1
Result: 0.000515

----------
details: in water, 313.15 K
outcome_measure: solubility (mole fraction)
Number only, please.

Problem: Requested read-out: solubility (mole fraction). Entry: O=C(O)/C=C/c1ccc(Cl)cc1
Result: 1.51e-05

----------
conditions: in ethanol, 288.15 K
outcome_measure: solubility (mole fraction)

Problem: Requested read-out: solubility (mole fraction). Entry: O=C(O)/C=C/c1ccc(Cl)cc1
Result: 0.00166

----------
conditions: in methyl acetate, 283.15 K
outcome_measure: solubility (mole fraction)
Number only, please.

Problem: Requested read-out: solubility (mole fraction). Entry: O=C(O)/C=C/c1ccc(Cl)cc1
Result: 0.00142

----------
conditions: in water, 323.15 K
outcome_measure: solubility (mole fraction)
Number only, please.

Problem: Requested read-out: solubility (mole fraction). Entry: O=C(O)/C=C/c1ccc(Cl)cc1
Result: 2.06e-05

----------
conditions: in acetonitrile, 313.15 K
outcome_measure: solubility (mole fraction)
Number only, please.

Problem: Requested read-out: solubility (mole fraction). Entry: O=C(O)/C=C/c1ccc(Cl)cc1
Result: 0.000622

----------
details: in isopropanol, 313.15 K
outcome_measure: solubility (mole fraction)

Problem: Requested read-out: solubility (mole fraction). Entry: O=C(O)/C=C/c1ccc(Cl)cc1
Result: 0.0029

----------
conditions: in ethanol, 313.15 K
outcome_measure: solubility (mole fraction)

Problem: Requested read-out: solubility (mole fraction). Entry: O=C(O)/C=C/c1ccc(Cl)cc1
Result: 0.00317

----------
conditions: in n-propanol, 288.15 K
outcome_measure: solubility (mole fraction)
Number only, please.

Problem: Requested read-out: solubility (mole fraction). Entry: O=C(O)/C=C/c1ccc(Cl)cc1
Result: 0.00146

----------
conditions: in isobutanol, 283.15 K
outcome_measure: solubility (mole fraction)
Number only, please.

Problem: Requested read-out: solubility (mole fraction). Entry: O=C(O)/C=C/c1ccc(Cl)cc1
Result: 0.00102

----------
details: in isopropanol, 303.15 K
outcome_measure: solubility (mole fraction)
Number only, please.

Problem: Requested read-out: solubility (mole fraction). Entry: O=C(O)/C=C/c1ccc(Cl)cc1
Result: 0.00215

----------
settings: in 1,4-dioxane, 298.15 K
outcome_measure: solubility (mole fraction)

Problem: Requested read-out: solubility (mole fraction). Entry: O=C(O)/C=C/c1ccc(Cl)cc1
Result: 0.0106

----------
conditions: in isobutanol, 303.15 K
outcome_measure: solubility (mole fraction)
Number only, please.

Problem: Requested read-out: solubility (mole fraction). Entry: O=C(O)/C=C/c1ccc(Cl)cc1
Result: 0.00195

----------
details: in isopropanol, 298.15 K
outcome_measure: solubility (mole fraction)
Number only, please.

Problem: Requested read-out: solubility (mole fraction). Entry: O=C(O)/C=C/c1ccc(Cl)cc1
Result: 0.0019

----------
details: in 1,4-dioxane, 318.15 K
outcome_measure: solubility (mole fraction)

Problem: Requested read-out: solubility (mole fraction). Entry: O=C(O)/C=C/c1ccc(Cl)cc1
Result: 0.0158

----------
conditions: in ethyl acetate, 323.15 K
outcome_measure: solubility (mole fraction)

Problem: Requested read-out: solubility (mole fraction). Entry: O=C(O)/C=C/c1ccc(Cl)cc1
Result: 0.00442
